Test system: ALP
assay_method_text: ALP catalyzed dephosphorylation of the precursors
Assay type: biochemical
test_parameters: alkaline phosphatase (ALP), isolated enzyme; substrate 0.1 wt %, ALP 0.1 U/mL, 37° C.; read-out: t1/2 of ALP catalyzed dephosphorylation (converted)
Where a SMILES comes first, the peptide text is derived from it. [ ]: non-standard residue; d: D form. The star is where a group is joined. X1 = O=C(CCC[P+](c1ccccc1)(c1ccccc1)c1ccccc1)*; d(pY) = N[C@H](Cc1ccc(OP(=O)(O)O)cc1)C(=O)O; pY = N[C@@H](Cc1ccc(OP(=O)(O)O)cc1)C(=O)O; NBD = O=[N+]([O-])c1ccc(*)c2nonc12; βAla = NCCC(=O)O
observable: half-life at 0.1 wt %

>  <molecule>
O=C(CCC[P+](c1ccccc1)(c1ccccc1)c1ccccc1)NCCCC[C@H](NC(=O)[C@H](Cc1ccc(OP(=O)(O)O)cc1)NC(=O)[C@H](Cc1ccccc1)NC(=O)[C@H](Cc1ccccc1)NC(=O)CCNc1ccc([N+](=O)[O-])c2nonc12)C(=O)O [L-1P] ({NBD-βAla}-FF[pY]K(X1)-OH)

>  <half-life at 0.1 wt %>
68.4 min

$$$$

Next up:
Entry under review: O=C(CCC[P+](c1ccccc1)(c1ccccc1)c1ccccc1)NCCCC[C@@H](NC(=O)[C@@H](Cc1ccc(OP(=O)(O)O)cc1)NC(=O)[C@@H](Cc1ccccc1)NC(=O)[C@@H](Cc1ccccc1)NC(=O)CCNc1ccc([N+](=O)[O-])c2nonc12)C(=O)O [D-1P] ({NBD-βAla}-[dF][dF][d(pY)][dK](X1)-OH) . Reported half-life at 0.1 wt %?
33 min

Every entry's value here was drawn from patent US12246068B2.
